test system: Saccharomyces cerevisiae; assay: protein stability index of tFT-peptide fusion (C-terminal peptide) (PSI (0-1 scale)); higher = more stable (slower turnover); conditions: genetic background: doa10 deletion; temperature: 30 C
Measured protein stability index values are reported for all entries that follow.

> print(dat)
   query.sequence          outcome.measure  experimental.value
1    SKSRKTGWMLIS  protein stability index               0.156

Reported protein stability index ( CLFRVCLFILSI ) = 0.311

The sequence listed as RSITFFPVCLVK shows protein stability index equal to 0.253

====

system: Saccharomyces cerevisiae; assay: protein stability index of tFT-peptide fusion (C-terminal peptide) (PSI (0-1 scale)); higher = more stable (slower turnover); conditions: genetic background: wild type; temperature: 30 C
Rule: protein stability index of 0.7 or more gives Met; anything lower gives Not met.

Example entries and their recorded answers appear below.
> print(dat)
   query.sequence       experimental.system  qualitative.label
1    SIWVLLVPRQSI  Saccharomyces cerevisiae            Not met
2    GVGGFLGVVGVG  Saccharomyces cerevisiae            Not met
3    CSSIFSSSDCYA  Saccharomyces cerevisiae                Met
4    GGVSGEGFSWVG  Saccharomyces cerevisiae            Not met
5    RMKKKKNKARDI  Saccharomyces cerevisiae                Met

From here, focus on the item given below.
Query :: Could you tell me if the measured protein stability index of FDAWTHAGMYNW reaches 0.7 or more?
Result :: Met

====

system: Saccharomyces cerevisiae; assay: protein stability index of tFT-peptide fusion (C-terminal peptide) (PSI (0-1 scale)); higher = more stable (slower turnover); conditions: genetic background: wild type; temperature: 30 C
protein stability index overview
Reply briefly: the number, and no unit.

Lab note: SGGGGGGDCVGA gave protein stability index of 0.687

Short answer for AHEAHPITPRGP : protein stability index was 0.695

Record PAPALPPPSSPP , field protein stability index: 0.69

Value of measured protein stability index for the entry SESKCRPKVSQP : 0.689

The recorded protein stability index for RLFSAWGCGLPL is 0.7

Per the records, this sequence ( RRTYERRVATSR ) has protein stability index equal to 0.691

Kindly note the recorded protein stability index for VEPLLGHPISRD , which is 0.702

Per the record, RGGWGGGDCVGA has protein stability index of 0.688

====

Listed below: protein stability index values for each entry.
tested on: Saccharomyces cerevisiae; assay: protein stability index of tFT-peptide fusion (C-terminal peptide) (PSI (0-1 scale)); higher = more stable (slower turnover); details: genetic background: cdc34-1; temperature: 37 C
Response field accepts a number only; no unit should be typed.

> print(dat)
   query.sequence  experimental.value
1    CPVSFSFCLKVL               0.348

Attention now turns to another entry.
protein stability index reported for this sequence FCVLLFFFPLII : 0.272

====

system: Saccharomyces cerevisiae; assay: protein stability index of tFT-peptide fusion (C-terminal peptide) (PSI (0-1 scale)); higher = more stable (slower turnover); conditions: genetic background: das1 deletion; temperature: 30 C
outcome.measure: protein stability index
# output: bare number, no unit

Example sequences with recorded protein stability index:
> print(dat)
   query.sequence  experimental.value
1    SVMTFVFFISAF               0.243
2    YDVQIEFCVVEV               0.365
3    WHVSLRFAFYVF               0.235
4    LPTGLKTFLIAF               0.414
5    FGGVFCVMARLV               0.629
6    FLIYMFRHCFFH               0.593

protein stability index of LGFHFFFTLIFF , assay on Saccharomyces cerevisiae, is 0.279

Bench note, Saccharomyces cerevisiae: entry RFWFTFYLIAVF , its protein stability index = 0.109

// protein stability index (Saccharomyces cerevisiae) for PPPLLVRPWFLV = 0.612

Bench note, Saccharomyces cerevisiae: entry PRFLRWLFSLLI , its protein stability index = 0.705

Measured on Saccharomyces cerevisiae, PFGPTFSPRPFR has a documented protein stability index of 0.684

Tested on Saccharomyces cerevisiae: CPVSFSFCLKVL . Observed protein stability index: 0.32

protein stability index of LLWALGLVLVEG , assay on Saccharomyces cerevisiae, is 0.217

Entry ARCKRSLSGGIG , Saccharomyces cerevisiae data, protein stability index value: 0.512

====

Entries and their protein stability index values follow.
tested on: Saccharomyces cerevisiae; test: protein stability index of tFT-peptide fusion (C-terminal peptide) (PSI (0-1 scale)); higher = more stable (slower turnover); details: genetic background: das1 deletion; temperature: 37 C
Lab note: write the figure by itself, no unit.

> print(dat)
   query.sequence       experimental.system  experimental.value
1    PCTFYLFWMFFV  Saccharomyces cerevisiae               0.601

protein stability index reading for KLRIVYAKVVCS : 0.613

The sequence listed as GLIICRRCLWCC has a reported protein stability index of 0.591

====

system: Saccharomyces cerevisiae; assay: protein stability index of tFT-peptide fusion in wild type (PSI (0-1 scale)); higher = more stable (slower turnover); conditions: genetic background: wild type
outcome.measure: protein stability index
Respond numerically, and do not add a unit to the figure.

Worked cases, protein stability index given:
> print(dat)
   query.sequence          outcome.measure  experimental.value
1    LMILRQKMNHQN  protein stability index               0.166
2   RVTRLDAIYFRIQ  protein stability index               0.218
3    RVTRLDAIYFRS  protein stability index               0.641
4    PSLAASFWRVVA  protein stability index               0.131
5   GLYMCSVGCWFRW  protein stability index               0.231

The measured protein stability index associated with RSLRVLLPLYCR reads 0.266

GET /value?item= FSMRWTFRYAVN &field=protein stability index returns 0.158

Reported protein stability index ( VRGAVGGWRLIG ) = 0.146

// protein stability index lookup, sequence = FSMRWTFVYWVN , result: 0.0513

// recorded protein stability index for KKAKKGQKQKIN : 0.106

====

test system: Saccharomyces cerevisiae; assay: protein stability index of tFT-peptide fusion in wild type (PSI (0-1 scale)); higher = more stable (slower turnover); details: genetic background: wild type
outcome.measure: protein stability index
Just the number, please, no unit attached.

Example entries begin here.
> print(dat)
   query.sequence  experimental.value
1    RLIHPLPVQFLN              0.0474
2   CLVSLPILLFFRW              0.0557
3    PSLAASFWRLVG               0.135
4    AITLPMCPLHLR               0.566

// switching to the query sequence
# protein stability index of PDKRNHLIKLLH = 0.154

====

tested on: Saccharomyces cerevisiae; assay: protein stability index of tFT-peptide fusion (C-terminal peptide) (PSI (0-1 scale)); higher = more stable (slower turnover); conditions: genetic background: das1 deletion; temperature: 37 C
Measured protein stability index by item
Please give only the number in your answer, with no unit.

Example cases with answers are listed next.
> print(dat)
   query.sequence  experimental.value
1    LPLCGLLLFLFF                0.53
2    FTEFWFFKQMSV               0.776

Please examine the following record next.
With Saccharomyces cerevisiae as the test system, LFMRGEDEMFSV showed protein stability index of 0.783

====

Parameter protein stability index: see the listing below.
system: Saccharomyces cerevisiae; experiment: protein stability index of tFT-peptide fusion (C-terminal peptide) (PSI (0-1 scale)); higher = more stable (slower turnover); settings: genetic background: wild type; temperature: 30 C
Reply with just the number.

For orientation, consider the following solved cases.
> print(dat)
                          query.sequence          outcome.measure  experimental.value
1  EVTSLYTNASNA [DPC29 C-terminal 12 aa]  protein stability index               0.703
2   EEVLEETKEKVE [PRT1 C-terminal 12 aa]  protein stability index               0.685
3   LNDMVLELKENY [NNF1 C-terminal 12 aa]  protein stability index               0.704

Record KFNLVTQRENSL [YGR025W C-terminal 12 aa] , field protein stability index: 0.695

The reported protein stability index of the sequence EDLDADGDHKLV [TUB4 C-terminal 12 aa] was 0.672

Recorded result, QDMMSGFLGGSK [GET4 C-terminal 12 aa] , protein stability index: 0.667

Record summary for YVKEAQSVVTSL [YIR043C C-terminal 12 aa] : reported protein stability index = 0.659

The value of protein stability index measured for the sequence YENEEIQRKRCI [YOR364W C-terminal 12 aa] turned out to be 0.658

Reported protein stability index for QIAGRYVVDTSK [ADH2 C-terminal 12 aa] was 0.652

protein stability index reading for GELFQIVSNQSS [STE6 C-terminal 12 aa] : 0.679
